# assay_text: Pharmacokinetic studies in mice
# Format: in vivo
# measurement_context: female, CD-1, mouse, plasma, po, 200 mg/kg, 200 mg/kg oral, 25% HPBCD/10 mM Citrate pH 2.2, Solution
assay_readout: Tmax (h)

> print(dat)
                                   compound  numeric.readout
1  O=C(Cc1cccc(OC(F)(F)F)c1)Nc1ccc(CCCCc2nnc(NC(=O)Cc3ccccn3)s2)nn1 [Compound 670]                1

----------
# assay_text: Pharmacokinetic studies in rats
# Format: in vivo
# measurement_context: female, Sprague-Dawley, plasma; Rat, 50 mg/kg oral, Eudragit L100-55 solid dispersion, Suspension
assay_readout: Tmax (h)

> print(dat)
                                   compound  assay.readout  numeric.readout
1  O=C(Cc1cccc(OC(F)(F)F)c1)Nc1ccc(CCCCc2nnc(NC(=O)Cc3ccccc3)s2)nn1           Tmax                2

----------
# System: Caco-2 cell monolayers
# assay_text: Caco-2 permeability assay
# Format: in vitro ADME, human
# Excerpt: Caco-2 cells are commonly used in a confluent monolayer on a cell culture insert filter. When cultured in this format and under specific conditions, the cells become differentiated and polarized such that their phenotype, morphologically and functionally resembles the enterocytes lining the small intestine. […]
assay_readout: Significant Efflux

> print(dat)
                                   compound             test.system  result
1  O=C(Cc1cccc(OC(F)(F)F)c1)Nc1ccc(CCCCc2nnc(NC(=O)Cc3cccc(F)c3)s2)nn1 [Compound 679]  Caco-2 cell monolayers      No

----------
# assay_text: Pharmacokinetic studies in mice
# Type: in vivo
# measurement_context: female, CD-1, mouse, plasma, po, 50 mg/kg, 50 mg/kg oral, Capryol PGMC, Suspension
assay_readout: Cmax (nM)

> print(dat)
                                   molecule  endpoint.unit  numeric.readout
1  O=C(Cc1ccccc1)Nc1ccc(CCCCc2nnc(NC(=O)C(O)c3cccc(Cl)c3)s2)nn1 (stereo not shown)             nM               80

----------
# assay_text: Pharmacokinetic studies in mice
# Type: in vivo
# measurement_context: female, CD-1, mouse, plasma, po, 50 mg/kg, 50 mg/kg oral, 2% NMP/98% Gelucire, Solution
assay_readout: Cmax (nM)

> print(dat)
                                   compound  assay.readout  numeric.readout
1  O=C(Cc1cccc(OC(F)(F)F)c1)Nc1ccc(CCCCc2nnc(NC(=O)C(O)c3cccc(Cl)c3)s2)nn1 (stereo not shown) [Compound 447]           Cmax             1130

----------
# assay_text: Pharmacokinetic studies in rats
# Assay type: in vivo
# measurement_context: female, Sprague-Dawley, plasma; Rat, 500 mg/kg oral, 40% HPBCD/10 mM Citrate pH 2.2, Solution
assay_readout: Tmax (h)

> print(dat)
                                   compound  assay.readout  endpoint.unit  numeric.readout
1  O=C(Cc1cccc(OC(F)(F)F)c1)Nc1ccc(CCCCc2nnc(NC(=O)Cc3ccccn3)s2)nn1           Tmax              h                2

----------
# assay_text: Pharmacokinetic studies in mice
# Format: in vivo
# measurement_context: female, CD-1, mouse, plasma, po, 50 mg/kg, 50 mg/kg oral, 0.5% CMC/0.1% PS80, Suspension
assay_readout: Cmax (nM)

> print(dat)
                                   molecule  numeric.readout
1  O=C(Cc1ccccc1)Nc1ccc(CCCCc2nnc(NC(=O)C(O)c3cccc(Cl)c3)s2)nn1 (stereo not shown)               10

----------
# assay_text: Pharmacokinetic studies in rats
# Assay type: in vivo
# measurement_context: female, Sprague-Dawley, plasma; Rat, 500 mg/kg oral, 40% HPBCD/10 mM Citrate pH 2.2, Solution
assay_readout: Cmax

> print(dat)
                                   compound   result
1  O=C(Cc1cccc(OC(F)(F)F)c1)Nc1ccc(CCCCc2nnc(NC(=O)Cc3ccccn3)s2)nn1 [Compound 670]  15.3 µM

----------
Catalogue of compounds with associated Cmax
# assay_text: Pharmacokinetic studies in mice
# Format: in vivo
# measurement_context: female, CD-1, mouse, plasma, po, 50 mg/kg, 50 mg/kg oral, Eudragit L100-55 solid dispersion, Suspension
assay_readout: Cmax (nM)

> print(dat)
                                   compound  assay.readout  endpoint.unit  numeric.readout
1  O=C(Cc1cccc(OC(F)(F)F)c1)Nc1ccc(CCCCc2nnc(NC(=O)Cc3ccccc3)s2)nn1           Cmax             nM              930
2  O=C(Cc1ccccc1)Nc1ccc(CCCCc2nnc(NC(=O)Cc3ccccc3)s2)nn1           Cmax             nM               20

----------
# assay_text: Pharmacokinetic studies in mice
# Type: in vivo
# measurement_context: female, CD-1, mouse, plasma, po, 50 mg/kg, 50 mg/kg oral, 2% NMP/98% Gelucire, Solution
assay_readout: Tmax (h)

> print(dat)
                                   molecule  numeric.readout
1  O=C(Cc1cccc(OC(F)(F)F)c1)Nc1ccc(CCCCc2nnc(NC(=O)C(O)c3cccc(Cl)c3)s2)nn1 (stereo not shown)                1

----------
# assay_text: Pharmacokinetic studies in mice
# Assay type: in vivo
# measurement_context: female, CD-1, mouse, plasma, po, 100 mg/kg, 100 mg/kg oral, 25% HPBCD/10 mM Citrate pH 2.2, Solution
assay_readout: Tmax (h)

> print(dat)
                                   compound  assay.readout  numeric.readout
1  O=C(Cc1cccc(OC(F)(F)F)c1)Nc1ccc(CCCCc2nnc(NC(=O)Cc3ccccn3)s2)nn1           Tmax                1

----------
# assay_text: Pharmacokinetic studies in rats
# Format: in vivo
# measurement_context: female, Sprague-Dawley, plasma; Rat, 80 mg/kg oral, 65% HPBCD/10 mM Citrate pH 2.6, Solution
assay_readout: Tmax (h)

> print(dat)
                                   compound  assay.readout  endpoint.unit  numeric.readout
1  O=C(Cc1cccc(OC(F)(F)F)c1)Nc1ccc(CCCCc2nnc(NC(=O)Cc3ccccn3)s2)nn1           Tmax              h                1

----------
# assay_text: Pharmacokinetic studies in mice
# Type: in vivo
# measurement_context: female, CD-1, mouse, plasma, po, 100 mg/kg, 100 mg/kg oral, 25% HPBCD/10 mM Citrate pH 2.2, Solution
assay_readout: Cmax

> print(dat)
                                   compound  assay.readout   result
1  O=C(Cc1cccc(OC(F)(F)F)c1)Nc1ccc(CCCCc2nnc(NC(=O)Cc3ccccn3)s2)nn1 [Compound 670]           Cmax  5.75 µM
